Catalogue of compounds with associated MIC
- System: Klebsiella pneumoniae
- measurementNotes: Antimicrobial activity against Klebsiella pneumoniae ATCC 13883 incubated at 37 degC for 24 hrs by broth macrodilution method
- Assay type: functional
- reportedConditions: ATCC 13883, 24 h

{"compound": "Oc1cc(Br)cc(Br)c1Oc1ccc(Br)cc1Br", "experimentalTarget": "Klebsiella pneumoniae", "MIC / µg/mL": 0.1}
{"compound": "C[C@@H](O)[C@H]1C(=O)N2C(C(=O)O)=C(SCCNC=N)C[C@H]12 [IMIPENEM ANHYDROUS]", "experimentalTarget": "Klebsiella pneumoniae", "MIC / µg/mL": 0.25}
{"compound": "Oc1c(Br)cc(Br)cc1Oc1ccc(Br)cc1Br", "experimentalTarget": "Klebsiella pneumoniae", "MIC / µg/mL": 5}
{"compound": "CO[C@@]1(NC(=O)Cc2cccs2)C(=O)N2C(C(=O)O)=C(COC(N)=O)CS[C@@H]21", "experimentalTarget": "Klebsiella pneumoniae", "MIC / µg/mL": 0.25}
{"compound": "O=C(O)c1cn(C2CC2)c2cc(N3CCNCC3)c(F)cc2c1=O", "experimentalTarget": "Klebsiella pneumoniae", "MIC / µg/mL": 0.125}
